- System: DMS-114 (FGFR1 overexpression) cells
- ASSAY PROCEDURE: cell proliferation assay (CellTiterGlo), DMS-114 cells
- Format: cell-based
- CONDITIONS: Homo sapiens, DMS-114, 72 h
ENDPOINT NAME: IC50

Some compounds with known IC50 results, for comparison:
{"COMPOUND": "Cc1nc2ccc(Oc3ccc4ncc(-c5cnn(CC6CC(=O)C6)c5)nc4c3Cl)cc2[nH]1", "IC50": "≥ 400 nM"}
{"COMPOUND": "Cc1nc2ccc(Oc3ccc4ncc(-c5cnn(C6CCNC7(CC7)C6)c5)nc4c3Cl)c(F)c2[nH]1 (centres unmarked)", "IC50": "20 to 100 nM"}
{"COMPOUND": "Cc1nc2ccc(Oc3ccc4ncc(-c5cnn(CC67COC(C6)C7)c5)nc4c3Cl)cc2[nH]1", "IC50": "≥ 400 nM"}

List IC50 for every entry below, keeping the order given.
1. Cc1nc2ccc(Oc3ccc4ncc(-c5cnn([C@@H](C)C6CCC(F)(F)CC6)c5)nc4c3Cl)cc2[nH]1
2. Cc1nc2ccc(Oc3ccc4ncc(-c5cnn(CC6CC(F)(F)C6)c5)nc4c3C3=CC(C)(C)OC3)cc2[nH]1

1. ≥ 400 nM
2. 100 to 400 nM
